tested on: Hs-578T; assay: NCI tumour cell line growth inhibition, 48 h
Active and inactive are the calls of the source. Rule as the data show it: active = GI50 up to about 1.1 µM and inactive = higher. Where a SMILES comes first, the peptide text is derived from it. The star is where a group is joined. Fmoc = O=C(OCC1c2ccccc2-c2ccccc21)*; OtBu = CC(C)(C)O*
Attribute Measured: GI50

Answered examples (6):
Compound: Nc1nc(SCc2ccccc2)c2ncn(Cc3ccccc3)c2n1
Test System: Hs-578T
Attribute Measured: GI50
Value Reported: > 100 µM (inactive)

Compound: O=C(O)/C(Cl)=C(/Cl)C(=O)Nc1cccc(Cl)c1
Test System: Hs-578T
Attribute Measured: GI50
Value Reported: 24.8 µM (inactive)

Compound: CCOP(=O)(OCC)/C(C#N)=C(\C)c1ccco1
Test System: Hs-578T
Attribute Measured: GI50
Value Reported: > 10 µM (inactive)

Compound: Nc1ccc(-c2nc3ccccc3s2)cc1Cl
Test System: Hs-578T
Attribute Measured: GI50
Value Reported: 56 µM (inactive)

Compound: Clc1ccc(NCNC2Nc3ccccc3N2)cc1Cl
Test System: Hs-578T
Attribute Measured: GI50
Value Reported: > 100 µM (inactive)

Compound: CCN(CC)CCOC(c1cc(OC)ccc1OC)c1ccc2n1-c1ccccc1OC2 (configuration not stated)
Test System: Hs-578T
Attribute Measured: GI50
Value Reported: 13.7 µM (inactive)

Note: attention shifts to another entry.
input: Please provide the recorded GI50 for CC(C)C(NC(=O)OCC1c2ccccc2-c2ccccc21)C(=O)NC(CCC(=O)OC(C)(C)C)C(=O)OC(C)(C)C (configuration not stated) (Fmoc-Val-Glu(OtBu)-OtBu; configuration not given here) , tested on Hs-578T.
output: > 100 µM (inactive)

* * *

tested on: UO-31; assay: NCI tumour cell line growth inhibition, 48 h
Active and inactive are the calls of the source. Cut-off read from the data, not from the text of the source: active = GI50 up to about 1.1 µM and inactive = higher.
Attribute Measured: GI50

Answered examples (5):
Compound: Cc1cc2c(=O)cc(-c3ccc(C(F)(F)F)cc3)oc2c(C(=O)O)c1C
GI50: > 100 µM (inactive)
--
Compound: CC(c1ccccc1)N1CC(C)(c2ccccc2)N(O)C(c2ccccc2)C1C (configuration not stated)
GI50: 3.23 µM (inactive)
--
Compound: CC(C)(C)C(=O)OC(N)/C=C/c1ccccc1 (configuration not stated)
GI50: > 100 µM (inactive)
--
Compound: COc1ccccc1/C(=N\OCCC(=O)O)c1cccs1
GI50: > 100 µM (inactive)
--
Compound: CCNC(=O)Nc1cccc(C)n1
GI50: > 100 µM (inactive)

input: Data request, read-out GI50, for COC(=O)C1CCC2(C)[C@H](CCC3O[C@]32C)[C@@]1(C)CC(=O)c1ccoc1 (some centres not stated)
output: 27.9 µM (inactive)

input: Let us now turn to `O=C(O)/C(Cl)=C(/Cl)C(=O)Nc1cccc(Cl)c1`
output: 18.5 µM (inactive)

input: Let us now turn to COc1cc2c(cc1OC)C1=Cc3cc(OC)c(OC)cc3C(C)N1C=C2 (configuration not stated)
output: 55.1 µM (inactive)

input: Let us now turn to `ON[C@@H]1C=C[C@H](n2cnc3c(NC4CC4)ncnc32)C1`
output: > 100 µM (inactive)

input: Let us now turn to COc1ccccc1C1CC(=O)CC(c2ccccc2OC)C12C(=O)NC(=S)NC2=O (configuration not stated)
output: 87.9 µM (inactive)

input: Let us now turn to N#CC(C#N)C1CN2CCC1CC2 (configuration not stated)
output: > 100 µM (inactive)

input: Let us now turn to CC(=O)OCC1OC(n2c(C)c(/N=N/c3ccc(Cl)cc3)c(C)c(C#N)c2=S)C(OC(C)=O)C(OC(C)=O)C1OC(C)=O (configuration not stated)
output: > 100 µM (inactive)

* * *

test system: NCI-H460; assay: NCI tumour cell line growth inhibition, 48 h
Activity calls are given as the source filed them. Cut-off read from the data, not from the text of the source: active = GI50 up to about 1.1 µM and inactive = higher.
Attribute Measured: GI50

Answered examples (2):
Smiles Structure: OB1OCc2ccccc21
GI50: 34.7 µM (inactive)
//
Smiles Structure: CCCCCn1cnc2c1S(=O)(=O)N(C)C(NC(=O)c1ccccc1)=N2
GI50: > 100 µM (inactive)

input: Data request, read-out GI50, for `c1ccc(Nc2nnc(CCCCCCCCc3nnc(Nc4ccccc4)o3)o2)cc1`
output: > 100 µM (inactive)

input: Let us now turn to `O=C1O[C@]2(c3ccccc3)C(c3ccccc3)=C[C@]2(C(=O)c2ccccc2)C1=O`
output: 27.1 µM (inactive)

input: Let us now turn to `CC(=O)c1cccc(NC(=O)C(=O)NNc2nnc(S)n2N)c1`
output: 4.17 µM (inactive)

* * *

system: SF-539; assay: NCI tumour cell line growth inhibition, 48 h
Activity calls are given as the source filed them. Rule as the data show it: active = GI50 up to about 1.1 µM and inactive = higher.
Attribute Measured: GI50

Molecule: O=c1[nH]nc(-c2cccc([N+](=O)[O-])c2)[nH]1
GI50: > 100 µM (inactive)

Molecule: Cc1ccc(S(=O)(=O)N/N=C/c2oc(-c3ccccc3Cl)c(-c3ccccc3Cl)c2[N+](=O)[O-])cc1
GI50: 22.4 µM (inactive)

Molecule: NCCCCNC1(c2cc3ccccc3s2)CCCCC1
GI50: 1.95 µM (inactive)

input: Data request, read-out GI50, for [N-]=[N+]=NC1C2CC3CC(C2)CC1C3 (stereo not given)
output: > 100 µM (inactive)

input: Let us now turn to `O=C1CSc2nnc(CCCCCCCCc3nnc4n3NC(=O)CS4)n2N1`
output: 48.9 µM (inactive)

* * *

tested on: 786-0; experiment: NCI tumour cell line growth inhibition, 48 h
Activity calls are given as the source filed them. No stated cut-off is given here; in the data, active = GI50 up to about 1.1 µM and inactive = higher.
Pick one: active, inactive

Examples with answers:
Compound: CCOC(=O)c1cccc(NC(=O)CBr)c1
Label: active
--
Compound: Clc1ccc(OCCSCCCCCCCCCCSCCOc2ccc(Cl)cc2)cc1
Label: inactive
--
Compound: CC(C)Cc1cnc(CC(C)C)c(=O)[nH]1
Label: inactive
--
Compound: CCOC(=O)C(=O)C1C(=O)Nc2ccccc21 (centres undefined)
Label: inactive

input: Name the outcome recorded for `Cc1noc(C)c1C1=CCCCc2ccccc21` in the assay.
output: inactive

input: Let us now turn to `CCOc1cc2oc(C)cc(=O)c2c(OC)c1/C=N/c1ccc(Cn2c(C)nc3ccccc32)cc1`
output: inactive

input: Let us now turn to `N#C[C@@H](c1nc2ccccc2s1)c1ncccc1[N+](=O)[O-]`
output: inactive

input: Let us now turn to `COc1cc(OC)cc(-c2nc(O)c3ccccc3n2)c1`
output: inactive

input: Let us now turn to `CCOc1ccccc1NC(=O)CCc1n[nH]c(=S)o1`
output: inactive

* * *

tested on: IGROV-1; experiment: NCI tumour cell line growth inhibition, 48 h
Activity calls are given as the source filed them. No stated cut-off is given here; in the data, active = GI50 up to about 1.1 µM and inactive = higher.
Catalogue of GI50 values

Answered examples (2):
Molecule: COc1cc([C@@H]2c3cc4c(cc3[C@@H](NC(=O)c3cccc([N+](=O)[O-])c3)C3COC(=O)[C@@H]32)OCO4)cc(OC)c1O (stereo not given in full)
GI50: 3.85 µM (inactive)
//
Molecule: CCOC(=O)C1Oc2ccc([N+](=O)[O-])cc2C1(C)O (stereo not given)
GI50: > 100 µM (inactive)

input: Data request, read-out GI50, for COCOCC1CCCN1CN1CCC[C@H]1COCOC (stereo not given in full)
output: > 100 µM (inactive)

input: Let us now turn to `O=S(=O)(O)C1=C2Sc3ccccc3N=C2c2ccccc2C1`
output: 14.3 µM (inactive)

input: Let us now turn to CC(C)C(C/C=C1/CC(CO)(COC(=O)CC(C(C)C)C(C)C)OC1=O)C(C)C (stereo not given)
output: 17.1 µM (inactive)

input: Let us now turn to C=C1CCC(CC[C@@H]2CC[C@]3(OC2)O[C@@]2(O)CC[C@]3(C)OC2(C)C)C(C)(C)[C@H]1C/C=C1/C(=O)OC[C@@H]1O (stereo not given in full)
output: 2.91 µM (inactive)

input: Let us now turn to COc1cc(S(=O)(=O)Nc2ccc(-c3csc(N4C(=O)C(C)SC4c4cccc(Oc5ccccc5)c4)n3)cc2)ccc1Cl (stereo not given)
output: 39 µM (inactive)

* * *

tested on: COLO 205; test: NCI tumour cell line growth inhibition, 48 h
The source made the active and inactive calls. Rule as the data show it: active = GI50 up to about 1.1 µM and inactive = higher.
Pick one: Yes for active, No for inactive

Examples with answers:
Molecule: c1ccc(C2[C@@H]3CCCc4ccccc4C3=NN2c2ccccc2)cc1 (stereo partly specified)
Label: No
--
Molecule: CCCCCCCCCCCCCCCCOP(=O)(O)OCC(N)C(=O)O (stereo unspecified)
Label: No
--
Molecule: CC(C)C(=O)/C=C/S/C=C/C(=O)C(C)C
Label: No

input: Name the outcome recorded for COc1cc(C2C3=C(COC3=O)Oc3cc4c(cc32)OCO4)cc(OC)c1O (stereo unspecified) in the assay.
output: Yes

input: Let us now turn to `O=C(O)CCCSc1nc2ccccc2s1`
output: No
